Each recorded value in this set is attributed to patent US20230340147A1.

Molecular target: T1, PSA(67-79)-G0F (human, also: Asn3 N-glycosylated with octasaccharide carrying alpha-1,6 core fucose (G0F))
T1 construct: Synthetic glycopeptide (3.9 kDa as SPR analyte), made on Sieber Amide resin; For the ELISAs a biotinylated form was used (glutamic acid derivative with a PEG3-biotin side chain at the N-terminus); also called PSA(67-79)-GOF; glycopeptide of Formula Ib
T1 peptide: IRN(G0F)KSVILLGRHS-NH2
Assay: SPR, Biacore 8k, 37 C, antibody captured by anti-rabbit Fc, peptide as analyte
Ends that are not written are not given here. * marks the point of attachment. G0F = octasaccharide N-glycan with alpha-1,6 core fucose (Formula Ib, linkages Formula Ic), CC(=O)N[C@@H]1[C@@H](O)[C@H](O[C@@H]2O[C@H](CO)[C@@H](O[C@@H]3O[C@H](CO[C@H]4O[C@H](CO)[C@@H](O)[C@H](O)[C@@H]4O[C@@H]4O[C@H](CO)[C@@H](O)[C@H](O)[C@H]4NC(C)=O)[C@@H](O)[C@H](O[C@H]4O[C@H](CO)[C@@H](O)[C@H](O)[C@@H]4O[C@@H]4O[C@H](CO)[C@@H](O)[C@H](O)[C@H]4NC(C)=O)[C@@H]3O)[C@H](O)[C@H]2NC(C)=O)[C@@H](CO[C@@H]2O[C@@H](C)[C@@H](O)[C@@H](O)[C@@H]2O)O[C@H]1*
List of MR (Molar Ratio) values.
Field format: numeric only.

| binder | measured-number |
| --- | --- |
| 2E9 (antibody, V domains shown, Rabbit monoclonal IgG (150 kDa); also called anti-1,6fucPSA antibody 2E9) VH: QSLEESGGDLVKPGASLTLTCTASGFSFSAGYDMCWVRQAPGKGLEWIACIYADGSGSTYYANWAKGRFTISLASSTTVTLQMTGLTAADTATYFCAREGADGPDYGYAAFSLWGPGTLVTVSS VL: DVVMTQTPASVEAAVGGTVTIKCQASQSISNYFSWYQQKPGQPPKLLIYKASTLASGVPSRFKGSGSGTEFTLTISDLECADAATYYCQSFYGSVTSDYGGFAFGGGTEVVVK | 2 |

We now examine a further binder.
**Query** Need MR (Molar Ratio) of 2C11 (antibody, V domains shown, Rabbit monoclonal IgG (150 kDa); also called anti-1,6fucPSA antibody 2C11) VH: QSLEESGGGLVKPGGTLTLTCKASGFSFGPGYDMCWVRQAPGKGLEWIACIYADGSDNTYYASWARGRFTISKTSSTTVTLQMTRLTAADTATYFCAREGADNPNYGYAALRLWGPGTLVTVSS VL: DIVMTQTPASVEAPVGGTVTIKCQASESISSYLAWYQQKPGQPPKLLIYKTSTLASGVPSRFKGSGSGTEFTLTISDLECANAATYYCQSFYGSVSSDYGGFAFGGGTEVVVK , thanks.
**Result** 1
